Tested on: L. monocytogenes
Assay: Intracellular invasion of L. monocytogenes in Caco-2 cells (gentamicin protection)
Type: cell-based, Listeria monocytogenes
endpoint.label: effect on intracellular invasion of the WT strain

compound: CC(C)(C)c1ccc(S(=O)(=O)/C=C/C#N)cc1 [BAY, BAY 11-7085]
test.target: L. monocytogenes
result: did not affect

compound: S=C(S)N1CCCC1 [PDTC, pyrrolidine dithiocarbamate]
test.target: L. monocytogenes
result: did not affect

compound: C=C1[C@@H](C)[C@H]2[C@H](Cc3ccccc3)NC(=O)[C@]23[C@H](OC(C)=O)/C=C/[C@@](C)(O)C(=O)[C@@H](C)C/C=C/[C@H]3[C@@H]1O [Cytochalasin D]
test.target: L. monocytogenes
result: low
